Where do the numbers come from? From patent US20250230247A1.

system: T1, human Dectin-1 (biosensor tests of Tables 3, 4A and 9; construct not stated) (human, UniProt Q9BXN2 66-247, limits assumed)
T1 construct: also called hDectin-1
T1 sequence (looked up): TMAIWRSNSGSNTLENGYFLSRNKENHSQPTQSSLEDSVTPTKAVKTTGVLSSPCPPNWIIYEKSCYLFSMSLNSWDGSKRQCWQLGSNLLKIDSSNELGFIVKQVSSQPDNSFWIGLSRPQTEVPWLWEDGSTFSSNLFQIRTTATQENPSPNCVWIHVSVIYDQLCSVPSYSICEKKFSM
measurement protocol: Octet response; also: time not given here
quantity: X = 470
Give a plain numeric answer without units written out.

Consider the following illustrative entries.
binder	quantity	observed measurement
2M24A.1.6 hFab (Fab, V domains shown, Fab; also called 2M24.1.6) VH: QVQLVQSGAEVKKPGASVKVSCKSSGYTFTAYYIHWVRQAPGQGLEWMGWINPNSGDTNYAQKFQGRITMTRDTSISTAYLELSRLRSDDTAVFYCARNSGSYSFGYWGQGTLVTVSS VL: DIQMTQSPSSVSASVGDRVTITCRASQGISSWLAWYQQKPGKAPKLLIFGASSLQSGVPSRFSGSGSGTDFTLTVSSLQPEDFATYYCQQAFSFPFTFGPGTKVDIE	X = 470	0.39
2M24A.1.2 hFab (Fab, V domains shown, Fab; also called 2M24.1.2) VH: QVQLVQSGAEVKKPGASVKVSCKSSGYTFTDYYIHWVRQAPGQGLEWMGWINPNSGATNYAQKFQGRITMTRDTSISTAYLELSRLRSDDTAVFYCARNSGSYSFGYWGQGTLVTVSS VL: DIQMTQSPSSVSASVGDRVTITCRASQGISSWLAWYQQKPGKAPKLLIFGASSLQSGVPSRFSGSGSGTDFTLTVSSLQPEDFATYYCQQAASFPFTFGPGTKVDIE	X = 470	0.006

### Prompt Dear colleague, I am looking for the recorded X = 470 of the following binder: 2M24A.1.28 (Fab, V domains shown, Fab; also called 2M24.1.28) VH: QVQLVQSGAEVKKPGASVKVSCKSSGYTFTDYYIHWVRQAPGQGLEWMGWINPNSGDTNYAQKFQGRITMTRDTSISTAYLELSRLRSDDTAVFYCARNSGSYSFGYWGQGTLVTVSS VL: DIQMTQSPSSVSASVGDRVTITCRASQGISSWLAWYQQKPGKAPKLLIFGASSLQSGVPSRFSGSGSGTDFTLTVSSLQPEDFATYYCQQAYSFPATFGPGTKVDIE
### Response 0.031

### Prompt Dear colleague, I am looking for the recorded X = 470 of the following binder: 2M24A.1.5 hFab (Fab, V domains shown, Fab; also called 2M24.1.5) VH: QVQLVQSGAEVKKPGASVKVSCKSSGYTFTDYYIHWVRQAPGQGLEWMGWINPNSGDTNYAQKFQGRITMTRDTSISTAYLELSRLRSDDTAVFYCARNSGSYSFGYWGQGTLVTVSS VL: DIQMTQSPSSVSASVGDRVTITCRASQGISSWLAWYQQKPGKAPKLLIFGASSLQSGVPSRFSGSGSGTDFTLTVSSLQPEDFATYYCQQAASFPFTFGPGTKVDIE
### Response 0.014

### Prompt Dear colleague, I am looking for the recorded X = 470 of the following binder: 2M24A.1.7 hFab (Fab, V domains shown, Fab; also called 2M24.1.7) VH: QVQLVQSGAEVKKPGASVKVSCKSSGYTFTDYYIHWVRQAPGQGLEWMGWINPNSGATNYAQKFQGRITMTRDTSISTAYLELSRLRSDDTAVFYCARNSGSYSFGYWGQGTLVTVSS VL: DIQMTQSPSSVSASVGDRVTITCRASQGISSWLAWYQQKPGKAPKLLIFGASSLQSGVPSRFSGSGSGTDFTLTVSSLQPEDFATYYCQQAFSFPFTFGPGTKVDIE
### Response 0.398

### Prompt Dear colleague, I am looking for the recorded X = 470 of the following binder: 2M24A.1.27 (Fab, V domains shown, Fab; also called 2M24.1.27) VH: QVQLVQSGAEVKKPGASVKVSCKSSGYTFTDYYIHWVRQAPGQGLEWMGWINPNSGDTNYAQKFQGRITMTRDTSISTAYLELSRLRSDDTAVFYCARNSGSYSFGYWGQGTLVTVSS VL: DIQMTQSPSSVSASVGDRVTITCRASQGISSWLAWYQQKPGKAPKLLIFGASSLQSGVPSRFSGSGSGTDFTLTVSSLQPEDFATYYCQQAYSFAFTFGPGTKVDIE
### Response 0.393

### Prompt Dear colleague, I am looking for the recorded X = 470 of the following binder: 2M24A.1.3 hFab (Fab, V domains shown, Fab; also called 2M24.1.3) VH: QVQLVQSGAEVKKPGASVKVSCKSSGYTFTDYYIHWVRQAPGQGLEWMGWINPNSGDTNYAQKFQGRITMTRDTSISTAYLELSRLRSDDTAVFYCARASGSYSFGYWGQGTLVTVSS VL: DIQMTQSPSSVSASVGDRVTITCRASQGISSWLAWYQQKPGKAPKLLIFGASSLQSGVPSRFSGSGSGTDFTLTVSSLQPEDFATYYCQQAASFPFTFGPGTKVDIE
### Response 0

### Prompt Dear colleague, I am looking for the recorded X = 470 of the following binder: 2M24A.1.1 hFab (Fab, V domains shown, Fab; also called 2M24.1.1) VH: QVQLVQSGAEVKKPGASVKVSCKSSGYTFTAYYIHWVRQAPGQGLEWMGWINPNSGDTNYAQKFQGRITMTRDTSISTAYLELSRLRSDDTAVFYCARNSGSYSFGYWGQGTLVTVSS VL: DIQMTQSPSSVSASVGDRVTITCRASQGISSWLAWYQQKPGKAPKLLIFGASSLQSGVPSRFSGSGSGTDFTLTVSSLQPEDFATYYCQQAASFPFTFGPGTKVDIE
### Response 0.006

### Prompt Dear colleague, I am looking for the recorded X = 470 of the following binder: 2M24A.1.29 (Fab, V domains shown, Fab; also called 2M24.1.29) VH: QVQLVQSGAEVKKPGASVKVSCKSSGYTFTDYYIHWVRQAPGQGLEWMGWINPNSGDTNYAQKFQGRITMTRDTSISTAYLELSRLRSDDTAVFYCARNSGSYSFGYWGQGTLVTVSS VL: DIQMTQSPSSVSASVGDRVTITCRASQGISSWLAWYQQKPGKAPKLLIFGASSLQSGVPSRFSGSGSGTDFTLTVSSLQPEDFATYYCQQAYSFPFAFGPGTKVDIE
### Response 0.35

### Prompt Dear colleague, I am looking for the recorded X = 470 of the following binder: 2M24A.1.25 (Fab, V domains shown, Fab; also called 2M24.1.25) VH: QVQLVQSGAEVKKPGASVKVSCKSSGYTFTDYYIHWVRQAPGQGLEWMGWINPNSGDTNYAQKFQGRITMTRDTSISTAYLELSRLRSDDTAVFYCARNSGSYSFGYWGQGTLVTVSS VL: DIQMTQSPSSVSASVGDRVTITCRASQGISSWLAWYQQKPGKAPKLLIFGASSLQSGVPSRFSGSGSGTDFTLTVSSLQPEDFATYYCQQAYAFPFTFGPGTKVDIE
### Response 0.432
